Parameter IC50: see the listing below.
# Target Or Test System: human NaV1.8 (Homo sapiens)
# Construct: The following NaV1.8 recombinant cell line was used for recordings: HEK-NaV1.8 (NM 006514.1)
# Test Description: Electrophysiology: automated whole-cell voltage-clamp (patch clamp, Qube384) recordings of sodium currents in HEK-NaV1.8 cells
# Run Parameters: potency data either taken from inactivated or resting state, read-out: Potency category (human NaV1.8 IC50)
# Experimental: Electrophysiology: Voltage-Clamp Recordings The following NaV1.8 recombinant cell line was used for recordings: HEK-NaV1.8 (NM 006514.1) with in (NM 018400.3). Sodium currents were measured using the patch clamp technique in the whole-cell configuration using the Qube384 (Sophion A/S, Copenhagen, Denmark) automated voltage clamp platform. […] The adjusted inhibition was calculated as follows: […]

>  <Compound>
Cc1nn(CC2CCCCC2)c(C(=O)Nc2cc[nH]c(=O)c2)c1C

>  <IC50>
1000 to 10000 nM

$$$$
>  <Compound>
NC(=O)c1cc(NC(=O)c2c(C(F)(F)F)c(C3CC3)nn2CC2CCCCO2)ccc1F (stereo not shown)

>  <IC50>
≤ 100 nM

$$$$
>  <Compound>
CC(C)Oc1nn(CC2CCC(F)(F)C2)c(C(=O)Nc2ccnc(C(N)=O)c2)c1C(F)(F)F (stereo not shown)

>  <IC50>
≤ 100 nM

$$$$
>  <Compound>
Cc1c(C(C)(F)F)nn(CC2(C)CCCO2)c1C(=O)Nc1ccnc(S(N)(=O)=O)c1 (single isomer, unassigned) [SC-319b]

>  <IC50>
1000 to 10000 nM

$$$$
>  <Compound>
NC(=O)c1cc(NC(=O)c2c(C(F)(F)F)c(C3CC3)nn2C[C@@H]2CCO[C@@H]2C(F)(F)F)ccn1 (single isomer, unassigned) [SC-147b]

>  <IC50>
≤ 100 nM

$$$$
>  <Compound>
Cc1cc(NC(=O)c2c(C(F)(F)F)c(C)nn2CC2CCC(F)(F)CC2)cc(C(N)=O)n1

>  <IC50>
100 to 1000 nM

$$$$
>  <Compound>
CS(=O)(=O)c1cc(NC(=O)c2c(C(F)(F)F)c(C3CC3)nn2CC2CCC(F)(F)CC2)ccn1

>  <IC50>
≤ 100 nM

$$$$

* * *

Parameter IC50: see the listing below.
# Target Or Test System: human NaV1.8 (Homo sapiens)
# Construct: The following NaV1.8 recombinant cell line was used for recordings: HEK-NaV1.8 (NM 006514.1)
# Test Description: Electrophysiology: automated whole-cell voltage-clamp (patch clamp, Qube384) recordings of sodium currents in HEK-NaV1.8 cells
# Run Parameters: potency data either taken from inactivated or resting state, read-out: Potency category (human NaV1.8 IC50)

>  <Molecule>
CNC(=O)c1cc(NC(=O)c2c(C(F)(F)F)c(C)nn2CC2CCC(F)(F)CC2)ccn1

>  <IC50>
100 to 1000 nM

$$$$
>  <Molecule>
NC(=O)c1cccc(NC(=O)c2c(C(F)(F)F)cnn2CC2CCC(F)(F)CC2)c1

>  <IC50>
100 to 1000 nM

$$$$
>  <Molecule>
CC(C1CCCCC1)n1ncc(C(F)(F)F)c1C(=O)Nc1ccnc(O)c1 (stereo not shown)

>  <IC50>
1000 to 10000 nM

$$$$
>  <Molecule>
C[C@@H]1CC[C@H](Cn2nc(C3CC3)c(C(F)(F)F)c2C(=O)Nc2ccnc(C(N)=O)c2)O1 (single isomer, unassigned) [SC-286a]

>  <IC50>
100 to 1000 nM

$$$$
>  <Molecule>
CS(=O)(=O)c1cc(NC(=O)c2c(C(F)F)c(C3CC3)nn2CC2CCOCC2)ccn1

>  <IC50>
≤ 100 nM

$$$$
>  <Molecule>
Cc1nn(CC2CCC(F)(F)CC2)c(C(=O)Nc2cccc(S(C)(=O)=O)c2)c1C

>  <IC50>
100 to 1000 nM

$$$$
>  <Molecule>
COc1nn(CC2CCC(F)(F)C2)c(C(=O)Nc2ccnc(C(N)=O)c2)c1C(F)(F)F (stereo not shown)

>  <IC50>
≤ 100 nM

$$$$
>  <Molecule>
Cc1c(C(F)(F)F)nn(CC2CCC(F)(F)C2)c1C(=O)Nc1ccnc(C(N)=O)c1 (single isomer, unassigned) [SC-118a]

>  <IC50>
≤ 100 nM

$$$$
>  <Molecule>
CCc1nn(CC2CCC(F)(F)C2)c(C(=O)Nc2ccnc(S(C)(=O)=O)c2)c1C(F)(F)F (stereo not shown)

>  <IC50>
≤ 100 nM

$$$$
>  <Molecule>
Cc1c(C(C)(F)F)nn(CC2(C)CC(F)(F)C2)c1C(=O)Nc1ccnc(S(N)(=O)=O)c1

>  <IC50>
≤ 100 nM

$$$$
>  <Molecule>
O=C(Nc1cc[nH]c(=O)c1)c1c(C(F)(F)F)cnn1CC1CCCCC1

>  <IC50>
100 to 1000 nM

$$$$
>  <Molecule>
CS(=O)(=O)c1cc(F)cc(NC(=O)c2c(C(F)(F)F)cnn2CC2CCC(F)(F)CC2)c1

>  <IC50>
1000 to 10000 nM

$$$$
>  <Molecule>
NC(=O)c1cc(NC(=O)c2c(Cl)c(C3CC3)nn2CC2CCOCC2)ccn1

>  <IC50>
100 to 1000 nM

$$$$
>  <Molecule>
Cc1c(C(C)(F)F)nn(C[C@@H]2C[C@@H]2C(F)F)c1C(=O)Nc1ccnc(C(N)=O)c1 (relative stereo)

>  <IC50>
100 to 1000 nM

$$$$
>  <Molecule>
Cc1c([C@H](C)C(F)(F)F)nn(CC2CC(F)(F)C2)c1C(=O)Nc1ccnc(C(N)=O)c1 [SC-188b]

>  <IC50>
100 to 1000 nM

$$$$
>  <Molecule>
NC(=O)c1cc(NC(=O)c2c(C(F)(F)F)cnn2CC2CCC(F)(F)CC2)ccc1F

>  <IC50>
100 to 1000 nM

$$$$

* * *

# Target Or Test System: human NaV1.8 (Homo sapiens, UniProt Q9Y5Y9)
# Construct: The following NaV1.8 recombinant cell line was used for recordings: HEK-NaV1.8 (NM 006514.1)
# Sequence (Q9Y5Y9 whole entry): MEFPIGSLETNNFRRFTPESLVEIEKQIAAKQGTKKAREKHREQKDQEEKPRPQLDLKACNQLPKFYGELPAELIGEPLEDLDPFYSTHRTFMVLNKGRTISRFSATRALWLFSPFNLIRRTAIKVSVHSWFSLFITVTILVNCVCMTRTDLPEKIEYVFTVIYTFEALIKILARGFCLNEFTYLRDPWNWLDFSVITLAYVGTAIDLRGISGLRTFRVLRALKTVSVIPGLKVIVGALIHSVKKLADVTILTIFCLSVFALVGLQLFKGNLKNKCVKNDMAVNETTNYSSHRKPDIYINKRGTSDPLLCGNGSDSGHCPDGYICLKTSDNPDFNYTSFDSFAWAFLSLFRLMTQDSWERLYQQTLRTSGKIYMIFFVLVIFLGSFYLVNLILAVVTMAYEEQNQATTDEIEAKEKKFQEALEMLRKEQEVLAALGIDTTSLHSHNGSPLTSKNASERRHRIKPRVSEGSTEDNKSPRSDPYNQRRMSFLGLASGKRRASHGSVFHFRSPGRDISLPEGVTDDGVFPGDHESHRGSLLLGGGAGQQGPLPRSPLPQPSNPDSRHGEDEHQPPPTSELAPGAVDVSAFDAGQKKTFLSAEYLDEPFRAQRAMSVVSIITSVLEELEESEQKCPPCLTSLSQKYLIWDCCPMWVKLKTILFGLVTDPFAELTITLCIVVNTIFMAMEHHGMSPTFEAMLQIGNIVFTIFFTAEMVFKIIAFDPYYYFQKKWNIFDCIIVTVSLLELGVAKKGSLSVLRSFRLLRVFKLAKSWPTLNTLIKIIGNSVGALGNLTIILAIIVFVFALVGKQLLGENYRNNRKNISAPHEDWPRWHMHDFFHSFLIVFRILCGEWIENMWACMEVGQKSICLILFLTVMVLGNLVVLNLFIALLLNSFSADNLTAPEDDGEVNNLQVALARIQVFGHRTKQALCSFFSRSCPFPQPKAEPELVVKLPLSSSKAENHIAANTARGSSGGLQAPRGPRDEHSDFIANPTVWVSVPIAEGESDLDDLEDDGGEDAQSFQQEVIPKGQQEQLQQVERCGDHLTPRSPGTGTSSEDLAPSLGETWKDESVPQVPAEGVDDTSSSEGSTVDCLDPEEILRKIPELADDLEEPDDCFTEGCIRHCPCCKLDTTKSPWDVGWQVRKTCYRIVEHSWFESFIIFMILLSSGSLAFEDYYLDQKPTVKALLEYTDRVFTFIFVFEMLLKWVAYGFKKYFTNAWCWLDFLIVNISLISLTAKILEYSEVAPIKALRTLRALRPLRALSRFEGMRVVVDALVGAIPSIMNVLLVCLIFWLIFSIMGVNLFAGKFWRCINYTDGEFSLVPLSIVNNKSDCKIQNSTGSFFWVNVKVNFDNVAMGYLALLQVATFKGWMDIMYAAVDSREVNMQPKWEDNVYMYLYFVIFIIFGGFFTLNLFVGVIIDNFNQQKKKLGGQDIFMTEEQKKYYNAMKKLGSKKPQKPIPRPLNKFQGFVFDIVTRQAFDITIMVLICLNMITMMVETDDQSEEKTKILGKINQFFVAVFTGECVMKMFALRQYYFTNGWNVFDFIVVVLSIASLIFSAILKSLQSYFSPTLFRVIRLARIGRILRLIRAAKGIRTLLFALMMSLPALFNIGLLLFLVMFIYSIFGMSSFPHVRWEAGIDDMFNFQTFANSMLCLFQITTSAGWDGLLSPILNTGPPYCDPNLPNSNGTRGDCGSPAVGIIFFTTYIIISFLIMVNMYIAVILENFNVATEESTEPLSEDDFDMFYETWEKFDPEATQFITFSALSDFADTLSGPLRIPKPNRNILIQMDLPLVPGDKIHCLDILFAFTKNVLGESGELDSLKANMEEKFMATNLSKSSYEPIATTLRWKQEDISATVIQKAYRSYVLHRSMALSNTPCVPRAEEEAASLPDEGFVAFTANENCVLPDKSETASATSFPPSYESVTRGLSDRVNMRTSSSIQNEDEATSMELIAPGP
# Sequence (Q9NY72 23-215 partner): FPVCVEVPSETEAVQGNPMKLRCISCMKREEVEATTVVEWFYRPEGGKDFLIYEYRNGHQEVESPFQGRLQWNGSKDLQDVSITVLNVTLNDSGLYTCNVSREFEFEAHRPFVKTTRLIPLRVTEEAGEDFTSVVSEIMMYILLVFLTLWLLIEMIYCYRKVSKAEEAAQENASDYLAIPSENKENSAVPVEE
# Test Description: Electrophysiology: automated whole-cell voltage-clamp (patch clamp, Qube384) recordings of sodium currents in HEK-NaV1.8 cells
# Run Parameters: potency data either taken from inactivated or resting state, read-out: Potency category (human NaV1.8 IC50)
Test Readout: IC50

>  <Compound>
CS(=O)(=O)c1cccc(NC(=O)c2c(C(F)(F)F)cnn2CC2CCC(F)(F)CC2)c1F [SC-16]

>  <Test Readout>
IC50

>  <Measured Result>
1000 to 10000 nM

$$$$
>  <Compound>
Cc1nn(CC2CCC(F)(F)CC2)c(C(=O)Nc2cc(C(N)=O)c(F)cn2)c1C(F)(F)F [SC-268]

>  <Test Readout>
IC50

>  <Measured Result>
1000 to 10000 nM

$$$$
>  <Compound>
COc1nn(CC2CCC(F)(F)C2)c(C(=O)Nc2ccnc(S(C)(=O)=O)c2)c1C(F)(F)F (stereo not drawn) [SC-225]

>  <Test Readout>
IC50

>  <Measured Result>
≤ 100 nM

$$$$
>  <Compound>
Cc1c(C(C)(F)F)nn(CC2CC(F)(F)C2)c1C(=O)Nc1ccnc(S(N)(=O)=O)c1 [SC-215]

>  <Test Readout>
IC50

>  <Measured Result>
≤ 100 nM

$$$$
>  <Compound>
COc1c(C(C)(F)F)nn(CC2CCC(F)(F)C2)c1C(=O)Nc1ccnc(C(N)=O)c1 (single isomer, unassigned) [SC-271b]

>  <Test Readout>
IC50

>  <Measured Result>
100 to 1000 nM

$$$$
>  <Compound>
COC1CC(Cn2nc(C3CC3)c(C(F)(F)F)c2C(=O)Nc2ccnc(C(N)=O)c2)C1 (single isomer, unassigned) [SC-281b]

>  <Test Readout>
IC50

>  <Measured Result>
100 to 1000 nM

$$$$
>  <Compound>
NC(=O)c1cc(NC(=O)c2c(C(F)(F)F)c(OC(F)F)nn2C[C@@H]2CCC(F)(F)C2)ccn1 [SC-158R]

>  <Test Readout>
IC50

>  <Measured Result>
≤ 100 nM

$$$$
>  <Compound>
C[S+]([O-])c1cc(NC(=O)c2c(C(F)(F)F)c(C(C)(F)F)nn2CC2CC(F)(F)C2)ccn1 (stereo not drawn) [SC-303]

>  <Test Readout>
IC50

>  <Measured Result>
≤ 100 nM

$$$$
>  <Compound>
Cc1c(C(F)(F)F)nn(CC2CCC(F)(F)C2)c1C(=O)Nc1ccnc(S(N)(=O)=O)c1 (single isomer, unassigned) [SC-254a]

>  <Test Readout>
IC50

>  <Measured Result>
≤ 100 nM

$$$$
>  <Compound>
NC(=O)c1cc(NC(=O)c2c(C(F)(F)F)c(C3CC3)nn2CC2CCCOC2)ccn1 (single isomer, unassigned) [SC-145a]

>  <Test Readout>
IC50

>  <Measured Result>
≤ 100 nM

$$$$
>  <Compound>
Cc1nn(C[C@H]2CCC(F)(F)C2)c(C(=O)Nc2cncc(C(N)=O)c2)c1C(F)(F)F [SC-247S]

>  <Test Readout>
IC50

>  <Measured Result>
100 to 1000 nM

$$$$
>  <Compound>
Cc1nn(C[C@H]2CCC(F)(F)C2)c(C(=O)Nc2ccnc(C(N)=O)n2)c1C(F)(F)F [SC-248S]

>  <Test Readout>
IC50

>  <Measured Result>
1000 to 10000 nM

$$$$
>  <Compound>
Cc1c(C(C)(F)F)nn(C[C@H]2C[C@@H]2C(F)(F)F)c1C(=O)Nc1ccnc(C(N)=O)c1 (single isomer, unassigned) [SC-204b]

>  <Test Readout>
IC50

>  <Measured Result>
≤ 100 nM

$$$$
>  <Compound>
NC(=O)c1cc(NC(=O)c2c(C(F)(F)F)c(C3CC3)nn2CC2CCC2(F)F)ccn1 (single isomer, unassigned) [SC-154b]

>  <Test Readout>
IC50

>  <Measured Result>
≤ 100 nM

$$$$
>  <Compound>
Cc1c(OC(F)F)nn(CC2CC(F)(F)C2)c1C(=O)Nc1ccnc(S(C)(=O)=O)c1 [SC-323]

>  <Test Readout>
IC50

>  <Measured Result>
100 to 1000 nM

$$$$
>  <Compound>
CS(=O)(=O)c1cc(NC(=O)c2c(C(F)(F)F)cnn2CC2CCC(F)(F)CC2)ccn1 [SC-14]

>  <Test Readout>
IC50

>  <Measured Result>
1000 to 10000 nM

$$$$
>  <Compound>
CCc1nn(CC2CC(F)(F)C2)c(C(=O)Nc2ccnc(S(C)(=O)=O)c2)c1C [SC-302]

>  <Test Readout>
IC50

>  <Measured Result>
100 to 1000 nM

$$$$
>  <Compound>
Cc1c([C@@H](C)C(F)(F)F)nn(CC2CC(F)(F)C2)c1C(=O)Nc1ccnc(C(N)=O)c1 [SC-188a]

>  <Test Readout>
IC50

>  <Measured Result>
100 to 1000 nM

$$$$
>  <Compound>
Cc1nn(CC2CCC(F)(F)CC2)c(C(=O)Nc2cccc(S(N)(=O)=O)c2)c1Cl [SC-236]

>  <Test Readout>
IC50

>  <Measured Result>
≤ 100 nM

$$$$
>  <Compound>
CC(C)c1nn(CC2CC(F)(F)C2)c(C(=O)Nc2ccnc(C(N)=O)c2)c1C(F)(F)F [SC-170]

>  <Test Readout>
IC50

>  <Measured Result>
≤ 100 nM

$$$$
>  <Compound>
CS(=O)(=O)c1cc(NC(=O)c2c(C(F)(F)F)c(C3CC3)nn2CC2CCC(F)(F)C2)ccn1 (single isomer, unassigned) [SC-277a]

>  <Test Readout>
IC50

>  <Measured Result>
≤ 100 nM

$$$$
>  <Compound>
Cc1c(C(C)(F)F)nn(CC2C[C@@H](F)[C@@H](F)C2)c1C(=O)Nc1ccnc(S(C)(=O)=O)c1 (stereo partly drawn) [SC-224]

>  <Test Readout>
IC50

>  <Measured Result>
100 to 1000 nM

$$$$
>  <Compound>
NS(=O)(=O)c1cc(NC(=O)c2c(C(F)(F)F)c(C3CC3)nn2CC2CCC(F)(F)CC2)ccn1 [SC-246]

>  <Test Readout>
IC50

>  <Measured Result>
≤ 100 nM

$$$$
>  <Compound>
CS(=O)(=O)c1cc(NC(=O)c2c(C(F)(F)F)cnn2CC2CCC(F)(F)CC2)ccc1F [SC-13]

>  <Test Readout>
IC50

>  <Measured Result>
100 to 1000 nM

$$$$
>  <Compound>
Cc1nn(CC2CCC(F)(F)CC2)c(C(=O)Nc2cncc(S(C)(=O)=O)c2)c1C(F)(F)F [SC-241]

>  <Test Readout>
IC50

>  <Measured Result>
100 to 1000 nM

$$$$
>  <Compound>
NC(=O)c1cc(NC(=O)c2c(C(F)(F)F)c(C3CC3)nn2C[C@@H]2CCO[C@H]2C(F)(F)F)ccn1 (racemic) [SC-147c]

>  <Test Readout>
IC50

>  <Measured Result>
≤ 100 nM

$$$$
>  <Compound>
NC(=O)c1cc(NC(=O)c2c(C(F)(F)F)c(C3CC3)nn2CC2CCC2)ccn1 [SC-159]

>  <Test Readout>
IC50

>  <Measured Result>
≤ 100 nM

$$$$
>  <Compound>
CS(=O)(=O)c1cccc(NC(=O)c2cc(C(F)(F)F)nn2CC2CCCCC2)c1 [SC-01]

>  <Test Readout>
IC50

>  <Measured Result>
100 to 1000 nM

$$$$
>  <Compound>
NC(=O)c1cc(NC(=O)c2c(C(F)(F)F)c(C3CC3)nn2CC2CCC(F)(F)C2)ccn1 (single isomer, unassigned) [SC-129a]

>  <Test Readout>
IC50

>  <Measured Result>
≤ 100 nM

$$$$
>  <Compound>
Cc1c(C(F)(F)F)nn(CC2CCC(F)(F)CC2)c1C(=O)Nc1ccnc(S(N)(=O)=O)c1 [SC-320]

>  <Test Readout>
IC50

>  <Measured Result>
≤ 100 nM

$$$$

Data provenance: patent US11999699B2
